Biological target: SARS-CoV-2 nsp13 (Severe acute respiratory syndrome coronavirus 2, UniProt P0DTD1)
Assay: SARS-CoV-2 nsp13 ATPase-associated activity (Biomol Green, BSA-TCEP)
Format: biochemical
Conditions: Activity in enzyme assay IC50 ATPase BSA-TCEP, SARS-CoV-2 nsp13-associated ATPase activity; from dose-response curves
Would you mind telling me the reported pIC50 of each entry?
Give bare numbers, as −log10 of the molar value.

These recorded examples may help you get a feel for the data.
- item_smiles: "CCOC(=O)/C(O)=C/C(=O)c1cn(Cc2ccc(OC)cc2)c2ccccc12"
  obs_value: 5.09
- item_smiles: "CCOC(=O)/C(O)=C/C(=O)c1cn(Cc2ccc(OC(F)(F)F)cc2)c2ccccc12"
  obs_value: 5.64
- item_smiles: "CCOC(=O)/C(O)=C/C(=O)c1cn(Cc2ccc(F)cc2)c2ccccc12"
  obs_value: 5.06
- item_smiles: "CCOC(=O)/C(O)=C/C(=O)c1cn(Cc2ccccc2)c2ccccc12"
  obs_value: 4.84
- item_smiles: "O=C(O)/C(O)=C/C(=O)c1cn(Cc2ccc(OC(F)(F)F)cc2)c2ccccc12"
  obs_value: 4.69

List pIC50 for every entry below, keeping the order given.
1. CCOC(=O)/C(O)=C/C(=O)c1cn(Cc2ccc(C(C)C)cc2)c2ccccc12
2. CC(C)c1ccc(Cn2cc(C(=O)/C=C(\O)C(=O)O)c3ccccc32)cc1

[5.02, 4.89]

List pIC50 for every entry below, keeping the order given.
1. Cc1ccc(Cn2cc(C(=O)/C=C(\O)C(=O)O)c3ccccc32)cc1
2. O=C(O)/C(O)=C/C(=O)c1cn(Cc2ccccc2)c2ccccc12
3. CCOC(=O)/C(O)=C/C(=O)c1cn(Cc2ccc(C)cc2)c2ccccc12

1: 5.08; 2: 4.99; 3: 5.15
